target: MBP (Escherichia coli); construct: made in house; host or cells: E. coli BL21(DE3); test: Surface Plasmon Resonance, immobilized MBP, peptides as analytes; format: binding; conditions: immobilized MBP on CM5 chip, 25°C, HBS pH 7.4; read-out: KD (SPR determined)
No end group written: not given here.

substance	readout_unit	Kd
WHPRPVWE-NH2 [MBP-8]	µM	200

====

Target: MBP (Escherichia coli, UniProt P0AEX9)
Construct: made in house; host or cells: E. coli BL21(DE3)
Assay: Surface Plasmon Resonance, immobilized MBP, peptides as analytes
Format: binding
Conditions: immobilized MBP on CM5 chip, 25°C, HBS pH 7.4
Procedure: The interactions between the protein and computationally optimized peptides were measured using the BIAcore 3000 (GE Healthcare Milano, Italy). […] Residual reactive groups were deactivated by treatment with 1 M ethanolamine hydrochloride, pH 8.5. The reference channel was activated with EDC/NHS and deactivated with ethanolamine. The binding assays were carried out at 20 μL /min at 25°C, with 4.5 min contact-time. […]

item_sequence	KD (SPR determined)
WGTNGGTR [MBP-2, computationally designed octapeptide]	CBE
PQYPPHDN [MBP-4, computationally designed octapeptide]	CBE
GLPKPGGN [MBP-5, computationally designed octapeptide]	CBE
YHDGYFRF [MBP-11, peptide along the minimization path of MBP-9]	No binding
YGDGYFRF [MBP-10, peptide along the minimization path of MBP-9]	No binding
WSPNFWWR [MBP-7, computationally designed octapeptide]	CBE

Source listed as paper PMC4529233.
